Target System: Integrin alpha-IIb/beta-3 (Homo sapiens, UniProt P05106+P08514)
Sequence (P05106 27-788 limits assumed): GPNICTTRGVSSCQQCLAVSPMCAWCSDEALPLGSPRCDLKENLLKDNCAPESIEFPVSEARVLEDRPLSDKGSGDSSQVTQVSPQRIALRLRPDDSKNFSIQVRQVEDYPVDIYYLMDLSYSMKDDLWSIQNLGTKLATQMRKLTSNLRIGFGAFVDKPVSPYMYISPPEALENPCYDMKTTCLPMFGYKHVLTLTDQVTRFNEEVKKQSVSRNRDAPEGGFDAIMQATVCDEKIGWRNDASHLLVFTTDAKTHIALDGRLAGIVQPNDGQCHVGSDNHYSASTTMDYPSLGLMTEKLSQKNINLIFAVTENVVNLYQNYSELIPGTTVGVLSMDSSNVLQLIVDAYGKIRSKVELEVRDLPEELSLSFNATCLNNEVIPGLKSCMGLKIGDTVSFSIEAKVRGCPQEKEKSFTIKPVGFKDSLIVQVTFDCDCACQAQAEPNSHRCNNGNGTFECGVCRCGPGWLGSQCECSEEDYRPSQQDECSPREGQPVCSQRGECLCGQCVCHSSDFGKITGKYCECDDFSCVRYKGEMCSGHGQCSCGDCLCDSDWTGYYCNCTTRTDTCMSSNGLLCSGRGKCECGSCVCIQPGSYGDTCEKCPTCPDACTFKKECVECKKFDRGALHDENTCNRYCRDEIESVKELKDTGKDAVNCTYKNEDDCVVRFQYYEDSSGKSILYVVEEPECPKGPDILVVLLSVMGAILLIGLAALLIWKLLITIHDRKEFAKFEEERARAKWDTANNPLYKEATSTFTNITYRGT
Sequence (P08514 32-887 limits assumed): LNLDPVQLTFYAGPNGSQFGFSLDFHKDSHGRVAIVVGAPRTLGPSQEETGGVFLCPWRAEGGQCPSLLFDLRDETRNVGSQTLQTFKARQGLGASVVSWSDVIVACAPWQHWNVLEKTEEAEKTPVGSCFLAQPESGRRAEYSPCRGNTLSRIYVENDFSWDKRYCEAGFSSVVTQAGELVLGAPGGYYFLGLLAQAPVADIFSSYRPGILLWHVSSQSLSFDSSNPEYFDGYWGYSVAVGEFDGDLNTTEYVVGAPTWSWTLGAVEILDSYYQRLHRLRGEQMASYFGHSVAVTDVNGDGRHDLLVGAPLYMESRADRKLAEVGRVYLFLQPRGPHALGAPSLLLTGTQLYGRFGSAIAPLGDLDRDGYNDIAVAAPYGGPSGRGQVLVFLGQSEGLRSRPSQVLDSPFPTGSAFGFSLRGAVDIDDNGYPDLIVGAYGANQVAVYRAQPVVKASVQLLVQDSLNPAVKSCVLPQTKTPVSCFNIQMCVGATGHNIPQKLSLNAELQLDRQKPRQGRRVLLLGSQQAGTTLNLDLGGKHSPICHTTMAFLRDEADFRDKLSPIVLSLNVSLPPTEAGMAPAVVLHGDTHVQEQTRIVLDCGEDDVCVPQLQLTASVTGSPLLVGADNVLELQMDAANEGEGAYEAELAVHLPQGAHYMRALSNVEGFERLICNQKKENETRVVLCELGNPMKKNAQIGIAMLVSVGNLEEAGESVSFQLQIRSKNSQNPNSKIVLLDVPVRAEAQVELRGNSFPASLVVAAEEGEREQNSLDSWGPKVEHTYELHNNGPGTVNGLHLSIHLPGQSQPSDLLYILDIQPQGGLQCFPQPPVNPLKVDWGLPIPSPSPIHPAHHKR
Sequence (P08514 891-1039 limits assumed): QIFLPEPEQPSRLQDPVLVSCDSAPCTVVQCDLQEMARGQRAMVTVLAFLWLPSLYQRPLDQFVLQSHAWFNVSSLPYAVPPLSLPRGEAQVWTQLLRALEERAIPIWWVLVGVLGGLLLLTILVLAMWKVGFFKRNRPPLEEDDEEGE
Test Method Notes: In vitro inhibitory activity against alpha IIb beta IIIa fibrinogen protein interaction was measured by ELISA
Property Name: pIC50
Here pIC50 is given on a logarithmic scale as minus log10 of the concentration in mol/L.

Completed entries (count: 2):
{"columns": ["Compound", "Measured Value"],
 "data": [
  ["O=C(NCC(NS(=O)(=O)c1ccccc1)C(=O)O)c1cc2cc(OCCONC3=NCCN3)ccc2[nH]1 (stereo not drawn)", 6.77],
  ["N=C(N)NOCCOc1ccc2[nH]c(C(=O)NCC(NS(=O)(=O)c3ccccc3)C(=O)O)cc2c1 (stereo not drawn)", 7.89]
]}

Next item in the queue.
Ask | pIC50 lookup needed for N=C(N)NOCCOc1ccc2[nH]c(C(=O)NCC(NS(=O)(=O)c3cc(Cl)cc(Cl)c3)C(=O)O)cc2c1 (stereo not drawn) , thanks.
Reply | 7.60

---

Target System: Integrin alpha-V/beta-3 (Homo sapiens, UniProt P05106+P06756)
Sequence (P05106 27-788 limits assumed): as the sequence (P05106 27-788 limits assumed) above
Sequence (P06756 31-889 limits assumed): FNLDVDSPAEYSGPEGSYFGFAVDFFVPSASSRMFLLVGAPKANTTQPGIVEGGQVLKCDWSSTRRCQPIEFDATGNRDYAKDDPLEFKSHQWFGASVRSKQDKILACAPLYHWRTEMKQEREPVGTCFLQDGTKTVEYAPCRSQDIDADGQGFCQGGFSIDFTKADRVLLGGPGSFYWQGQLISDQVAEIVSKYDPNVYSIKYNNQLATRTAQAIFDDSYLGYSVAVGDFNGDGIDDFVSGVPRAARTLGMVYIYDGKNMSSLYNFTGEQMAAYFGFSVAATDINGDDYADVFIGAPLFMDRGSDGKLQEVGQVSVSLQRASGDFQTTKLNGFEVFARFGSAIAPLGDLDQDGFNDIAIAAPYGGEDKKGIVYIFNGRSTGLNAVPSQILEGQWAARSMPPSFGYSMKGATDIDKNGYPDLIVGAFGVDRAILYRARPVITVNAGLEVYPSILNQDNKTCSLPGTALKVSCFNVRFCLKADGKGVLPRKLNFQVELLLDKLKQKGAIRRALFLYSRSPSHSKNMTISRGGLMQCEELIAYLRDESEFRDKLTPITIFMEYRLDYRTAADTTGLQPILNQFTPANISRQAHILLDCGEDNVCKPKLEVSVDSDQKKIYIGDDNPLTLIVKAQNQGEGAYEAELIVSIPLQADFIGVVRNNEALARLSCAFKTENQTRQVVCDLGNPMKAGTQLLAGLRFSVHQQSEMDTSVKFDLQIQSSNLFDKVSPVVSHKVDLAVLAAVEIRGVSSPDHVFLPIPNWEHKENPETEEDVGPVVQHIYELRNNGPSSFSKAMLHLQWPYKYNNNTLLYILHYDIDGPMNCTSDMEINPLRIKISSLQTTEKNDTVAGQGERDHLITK
Sequence (P06756 891-1048 limits assumed): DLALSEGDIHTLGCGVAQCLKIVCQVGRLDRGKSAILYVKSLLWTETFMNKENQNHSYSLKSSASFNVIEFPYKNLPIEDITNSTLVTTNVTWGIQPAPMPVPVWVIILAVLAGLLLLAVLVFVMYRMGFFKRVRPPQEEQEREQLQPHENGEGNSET
Test Method Notes: In vitro inhibitory activity against alpha v beta 3 vitronectin protein interaction was measured by ELISA
Assay type: protein-complex assay
pIC50: −log10 of the molar value.
Answer Condition not met if pIC50 is under 8, and Condition met if it is 8 or more.

Study these solved cases before continuing.
{"columns": ["Molecule", "Target System", "Assigned Label"],
 "data": [
  ["N=C(N)NOCCOc1ccc2[nH]c(C(=O)NCC(NC(=O)c3ccccc3)C(=O)O)cc2c1 (stereo not drawn)", "Integrin alpha-V/beta-3 (Homo sapiens, UniProt P05106+P06756)", "Condition not met"],
  ["N=C(N)NOCCOc1ccc2[nH]c(C(=O)NCC(NS(=O)(=O)c3ccccc3)C(=O)O)cc2c1 (stereo not drawn)", "Integrin alpha-V/beta-3 (Homo sapiens, UniProt P05106+P06756)", "Condition met"],
  ["N=C(N)NOCCOc1ccc2[nH]c(C(=O)NCC(NCc3ccccc3)C(=O)O)cc2c1 (stereo not drawn)", "Integrin alpha-V/beta-3 (Homo sapiens, UniProt P05106+P06756)", "Condition not met"],
  ["NC(N)=NOCCOc1ccc2[nH]c(C(=O)NCC(N)C(=O)O)cc2c1 (stereo not drawn)", "Integrin alpha-V/beta-3 (Homo sapiens, UniProt P05106+P06756)", "Condition not met"]
]}

Ask | State whether the measured pIC50 reaches 8, counting equality as reaching it, for CC1(C)C2CCC1(S(=O)(=O)NC(CNC(=O)c1cc3cc(OCCONC(=N)N)ccc3[nH]1)C(=O)O)CC2 (stereo not drawn)
Reply | Condition met

Ask | // next record O=C(NCC(NS(=O)(=O)c1ccccc1)C(=O)O)c1cc2cc(OCCONC3=NCCN3)ccc2[nH]1 (stereo not drawn)
Reply | Condition not met

Ask | // next record O=C(NCc1ccccc1)NOCCOc1ccc2[nH]c(C(=O)NCC(NC(=O)OCc3ccccc3)C(=O)O)cc2c1 (stereo not drawn)
Reply | Condition not met

Ask | // next record N=C(N)NOCCOc1ccc2[nH]c(C(=O)NC(CC(=O)O)c3cc(Cl)cc(Cl)c3)cc2c1 (stereo not drawn)
Reply | Condition not met

Ask | // next record Cc1ccc(S(=O)(=O)NC(CNC(=O)c2cc3cc(OCCO/N=C(\N)NC(=O)OC(C)(C)C)ccc3[nH]2)C(=O)O)cc1 (stereo not drawn)
Reply | Condition not met
